Target: T1, monkey LAG-3 on cells (HEK293-cLAG-3 stable cell line) (monkey, UniProt P18627 24-525 (human entry))
T1 construct: Full-length monkey (Chinese monkey) LAG-3 gene expressed on HEK293 cells
T1 chain: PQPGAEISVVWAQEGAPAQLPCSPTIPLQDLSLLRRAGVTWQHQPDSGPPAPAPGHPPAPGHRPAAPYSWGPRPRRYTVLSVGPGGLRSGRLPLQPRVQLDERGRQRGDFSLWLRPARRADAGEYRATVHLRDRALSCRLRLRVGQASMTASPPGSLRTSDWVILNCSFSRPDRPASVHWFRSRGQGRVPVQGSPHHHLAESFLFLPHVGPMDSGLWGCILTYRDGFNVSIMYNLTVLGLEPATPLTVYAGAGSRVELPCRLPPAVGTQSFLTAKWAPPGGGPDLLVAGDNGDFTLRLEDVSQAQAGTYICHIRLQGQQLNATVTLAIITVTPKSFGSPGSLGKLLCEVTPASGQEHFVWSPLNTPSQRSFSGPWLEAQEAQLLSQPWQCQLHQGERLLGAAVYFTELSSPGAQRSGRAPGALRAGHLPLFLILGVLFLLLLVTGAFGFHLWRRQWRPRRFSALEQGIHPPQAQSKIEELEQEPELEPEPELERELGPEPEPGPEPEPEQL
Test: FACS, HEK293-cLAG-3, antibody 0.013 nM
result type: Mean fluorescence intensity
I only need the number, thanks.

Prompt: What does the data say about its Mean fluorescence intensity? Entry: 405B8H3 mouse-human chimeric antibody (antibody, V domains shown, also called mAb103-405B8H3) VH: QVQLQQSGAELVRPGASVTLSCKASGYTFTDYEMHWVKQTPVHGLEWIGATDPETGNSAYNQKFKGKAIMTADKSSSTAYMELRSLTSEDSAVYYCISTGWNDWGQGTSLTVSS VL: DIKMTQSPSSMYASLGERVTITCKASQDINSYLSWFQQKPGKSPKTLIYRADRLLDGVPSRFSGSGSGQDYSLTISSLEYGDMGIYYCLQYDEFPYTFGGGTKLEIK
Completion: 3.52
